Each recorded value in this set is attributed to ChEMBL document CHEMBL1139612.

target: 5-hydroxytryptamine receptor 1A (Rattus norvegicus, UniProt P19327); assay: Inhibitory concentration against 5-hydroxytryptamine 1A receptor in rat hippocampus membrane using [3H]-8-OH-DPAT as radioligand
Sequence (P19327 whole entry): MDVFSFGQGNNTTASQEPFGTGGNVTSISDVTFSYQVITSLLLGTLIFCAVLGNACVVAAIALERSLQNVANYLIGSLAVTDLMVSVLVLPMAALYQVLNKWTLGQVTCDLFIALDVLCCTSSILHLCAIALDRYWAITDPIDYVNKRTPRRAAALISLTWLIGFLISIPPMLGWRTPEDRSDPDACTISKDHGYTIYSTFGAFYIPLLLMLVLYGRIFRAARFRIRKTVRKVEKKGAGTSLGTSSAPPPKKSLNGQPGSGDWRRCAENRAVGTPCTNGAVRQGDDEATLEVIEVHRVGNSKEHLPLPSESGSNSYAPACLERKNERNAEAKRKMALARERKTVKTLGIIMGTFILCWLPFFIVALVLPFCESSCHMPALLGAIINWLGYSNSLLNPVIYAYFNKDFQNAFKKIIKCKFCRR
experimentalEndpoint: IC50 (µM)

1 = O=C(O)/C=C/C(=O)O.O=C1c2ccccc2OC=C(Cl)N1CCCCN1CCC=C(c2ncccn2)C1
2 = O=C1c2ccccc2OC=C(Cl)N1CCCCN1CCCC(c2ncccn2)C1 (configuration not stated)
Record comparison, field IC50: mark the lower of 1 and 2 . Write down the label of the entry you select.
1

====

organism: Rattus norvegicus; test: Ratio of dopamine receptor D2 to that of 5-hydroxytryptamine 1A receptor
experimentalEndpoint: Ratio

> print(dat)
                                  molsmiles  experimentalendpoint  readoutvalue
1  Cl.O=C1c2ccccc2OC=C(Cl)N1CCCCN1CC=C(c2ncccn2)CC1                 Ratio           358

I = O=C1c2ccccc2OC=C(Cl)N1CCCCN1CCN(c2ccccn2)CC1
II = O=C(O)/C=C/C(=O)O.O=C1c2ccccc2OC=C(Cl)N1CCCCN1CCC=C(c2ncccn2)C1
III = Cl.O=C1c2ccccc2OC=C(Cl)N1CCCCN1CCC(c2ncccn2)CC1
IV = O=C1c2ccccc2OC=C(Cl)N1CCCCN1CCN(c2ncccn2)CC1
Rank order required: Ratio, descending. Ranked list of labels, please, in the requested order.
III, IV, I, II

====

molecular target: D(2) dopamine receptor (Rattus norvegicus); assay: Inhibitory concentration against Dopamine receptor D2 in rat striatum membrane using [3H]raclopride as radioligand
Sequence (P61169 whole entry): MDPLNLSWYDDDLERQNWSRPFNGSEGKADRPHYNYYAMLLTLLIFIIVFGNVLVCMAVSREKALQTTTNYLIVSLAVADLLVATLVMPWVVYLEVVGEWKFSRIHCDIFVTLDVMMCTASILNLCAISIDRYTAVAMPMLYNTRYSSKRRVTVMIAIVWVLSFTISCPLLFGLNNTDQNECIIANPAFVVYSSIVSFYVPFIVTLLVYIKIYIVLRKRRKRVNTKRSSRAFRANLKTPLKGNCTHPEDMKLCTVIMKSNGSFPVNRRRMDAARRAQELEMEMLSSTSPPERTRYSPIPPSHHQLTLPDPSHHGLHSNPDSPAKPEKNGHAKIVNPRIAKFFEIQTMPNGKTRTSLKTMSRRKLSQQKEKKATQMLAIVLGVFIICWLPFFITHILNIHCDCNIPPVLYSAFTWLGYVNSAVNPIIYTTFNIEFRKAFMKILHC
experimentalEndpoint: pIC50
Remember, pIC50 is on a log scale: it is -log10 of the molar concentration.

Record O=C(O)/C=C/C(=O)O.O=C1c2ccccc2OC=C(Cl)N1CCCCN1CCC=C(c2ncccn2)C1 : what is its pIC50 with D(2) dopamine receptor (Rattus norvegicus)?
6.05

====

molecular target: Serotonin 1a (5-HT1a) receptor/Adrenergic receptor alpha-1 (Rattus norvegicus) (UniProt P15823+P23944+P43140+P19327); assay: Ratio of alpha-1 adrenergic receptor to that of 5-hydroxytryptamine 1A receptor; format: protein assay
experimentalEndpoint: Ratio

Known results for molecules:
> print(dat)
                                  molsmiles  readoutvalue
1  Cl.O=C1c2ccccc2OC=C(Cl)N1CCCCN1CCC(c2ncccn2)CC1           344
2  Cl.O=C1c2ccccc2OC=C(Cl)N1CCCCN1CCC(O)(c2ncccn2)CC1           3.6
3  Cl.O=C1c2ccccc2OC=C(Cl)N1CCCCN1CC=C(c2ncccn2)CC1           670

A = O=C1c2ccccc2OC=C(Cl)N1CCCCN1CCN(c2ncccn2)CC1
B = O=C1c2ccccc2OC=C(Cl)N1CCCCN1CCN(c2ccccn2)CC1
C = O=C(O)/C=C/C(=O)O.O=C1c2ccccc2OC=C(Cl)N1CCCCN1CCC=C(c2ncccn2)C1
Which order do these items take when sorted by rising Ratio? List them. Ranked list of labels, please, in the requested order.
C, B, A

====

target: Adrenergic receptor alpha-1 (Rattus norvegicus, UniProt P15823+P23944+P43140); assay: Inhibitory concentration against Alpha-1 adrenergic receptor in rat cerebral cortex membrane using [3H]prazosin as radioligand; type: cell membranes
experimentalEndpoint: IC50 (nM)

Known results for molecules:
> print(dat)
                                  molsmiles  readoutvalue
1  Cl.O=C1c2ccccc2OC=C(Cl)N1CCCCN1CCC(O)(c2ncccn2)CC1          9560
2  O=C(O)/C=C/C(=O)O.O=C1c2ccccc2OC=C(Cl)N1CCCCN1CCC=C(c2ncccn2)C1           384
3  Cl.O=C1c2ccccc2OC=C(Cl)N1CCCCN1CC=C(c2ncccn2)CC1           924

P = O=C1c2ccccc2OC=C(Cl)N1CCCCN1CCN(c2ncccn2)CC1
Q = Cl.O=C1c2ccccc2OC=C(Cl)N1CCCCN1CCC(c2ncccn2)CC1
R = O=C1c2ccccc2OC=C(Cl)N1CCCCN1CCN(c2ccccn2)CC1
Which order do these items take when sorted by rising IC50? List them. Ranked list of labels, please, in the requested order.
R, P, Q
